test.method.notes: Half life in Sprague-Dawley rat at 10 mg/kg, po
Format: ADME, organism-based
condition.description: in vivo
metric: half-life (h)
Numbers only here, please. The scale is h.

Can you share its half-life? I mean this compound: NC(=O)c1cccc(-c2cnc3[nH]ccc3c2)c1
1.4

###

test.method.notes: MRT in Sprague-Dawley rat at 2 mg/kg, iv
Format: ADME, organism-based
condition.description: in vivo
metric: MRT (h)
Numbers only here, please. The scale is h.

Can you share its MRT? I mean this compound: NC(=O)c1cccc(-c2cnc3[nH]ccc3c2)c1
1.5

###

test.method.notes: Clearance in Sprague-Dawley rat at 2 mg/kg, iv
Format: ADME, organism-based
condition.description: in vivo
metric: clearance
Write the numeric value and append its unit.

Can you share its clearance? I mean this compound: NC(=O)c1cccc(-c2cnc3[nH]ccc3c2)c1
118 mL/min/kg
